experiment: in vitro; conditions: PAMPA, pH 7

>  <compound>
CO[C@H]1C[C@@H]2CC[C@@H](C)[C@@](O)(O2)C(=O)C(=O)N2CCCC[C@H]2C(=O)O[C@H]([C@H](C)C[C@@H]2CC[C@@H](O)[C@H](OC)C2)CC(=O)[C@H](C)/C=C(\C)[C@@H](O)[C@@H](OC)C(=O)[C@H](C)C[C@H](C)/C=C/C=C/C=C/1C [Sirolimus]

>  <Papp>
< 1 ×10⁻⁶ cm/s

$$$$
